molecular target: UniProt:P51812
Sequence (P51812 whole entry): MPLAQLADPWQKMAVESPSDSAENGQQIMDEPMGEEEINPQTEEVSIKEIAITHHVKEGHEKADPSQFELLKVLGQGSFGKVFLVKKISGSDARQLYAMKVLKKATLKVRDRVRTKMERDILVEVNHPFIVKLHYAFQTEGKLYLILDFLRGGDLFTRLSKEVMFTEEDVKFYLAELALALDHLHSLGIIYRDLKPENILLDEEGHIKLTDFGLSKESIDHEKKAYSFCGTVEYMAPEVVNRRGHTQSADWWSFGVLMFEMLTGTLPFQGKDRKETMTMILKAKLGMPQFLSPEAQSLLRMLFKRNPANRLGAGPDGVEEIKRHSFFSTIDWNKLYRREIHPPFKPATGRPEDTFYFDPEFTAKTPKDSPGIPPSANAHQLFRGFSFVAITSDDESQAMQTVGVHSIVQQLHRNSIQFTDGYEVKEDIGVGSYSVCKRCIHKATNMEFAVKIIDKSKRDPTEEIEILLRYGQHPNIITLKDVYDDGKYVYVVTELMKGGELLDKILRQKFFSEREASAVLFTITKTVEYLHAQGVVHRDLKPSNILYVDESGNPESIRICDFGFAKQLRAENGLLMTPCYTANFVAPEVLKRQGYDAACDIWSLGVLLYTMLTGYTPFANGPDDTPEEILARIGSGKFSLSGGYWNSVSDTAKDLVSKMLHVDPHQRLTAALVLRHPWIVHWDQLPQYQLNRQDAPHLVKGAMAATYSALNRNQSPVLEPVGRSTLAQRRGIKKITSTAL
Could you mark each record true (1) if its ΔTm falls strictly under 0.6 °C, and false (0) if it equals or exceeds it?

Below are worked cases with known answers.
O=C1C=C2C(=Nc3c2c2c(c4c3=NC3=C4CCC=C3)C=NC=2)CC1 = false (0)
CN1CCc2[nH]c(=S)c(C#N)c(-c3cccs3)c2C1 = false (0)
Nc1n[nH]c2nc3ccccc3nc12 = true (1)
CN(C)c1ccc(CC2C(=O)Nc3ccccc32)cc1 (configuration not stated) = false (0)
NC1=N/C(=C2/CCNC(=O)c3[nH]ccc32)C(=O)N1 = false (0)
O=C(O)c1cc(N(Cc2ccccc2O)Cc2cc(O)ccc2O)ccc1O = true (1)
O=C1c2ccccc2-[n+]2ccc3c([nH]c4ccccc43)c21 [FASCAPLYSIN CHLORIDE] = true (1)
O=C(O)c1cc(NCc2cc(O)ccc2O)ccc1O = true (1)

## Task Consider the molecule O=c1c(O)c(-c2ccc(O)c(O)c2)oc2cc(O)cc(O)c12 . Is its ΔTm strictly less than 0.6 °C?
## Result false (0)

## Task Consider the molecule O=C1Nc2ccccc2/C1=C1/Nc2ccccc2/C1=N\O . Is its ΔTm strictly less than 0.6 °C?
## Result false (0)

## Task Consider the molecule N#CCCc1ccc2c(c1)-c1[nH]c3ccc([N+](=O)[O-])cc3c1CC(=O)N2 . Is its ΔTm strictly less than 0.6 °C?
## Result false (0)

## Task Consider the molecule Cc1cc(Nc2nc(-c3ccccc3)nc3ccccc23)n[nH]1 . Is its ΔTm strictly less than 0.6 °C?
## Result false (0)

## Task Consider the molecule C[C@@H]1C[C@H]2O[C@@H]2/C=C\C=C\C(=O)Cc2c(Cl)c(O)cc(O)c2C(=O)O1 . Is its ΔTm strictly less than 0.6 °C?
## Result true (1)

## Task Consider the molecule Cc1nc2sccn2c(=O)c1CCN1CCC(=C(c2ccccc2)c2ccc(F)cc2)CC1 . Is its ΔTm strictly less than 0.6 °C?
## Result false (0)

## Task Consider the molecule COc1cc2ncnc(Nc3cccc(Br)c3)c2cc1OC . Is its ΔTm strictly less than 0.6 °C?
## Result false (0)

## Task Consider the molecule Cl.Cn1cc(C2=C(c3ccc4cc5n(c4c3)CCC(CN)C5)C(=O)NC2=O)c2ccccc21 (configuration not stated) . Is its ΔTm strictly less than 0.6 °C?
## Result false (0)

## Task Consider the molecule CCOc1cc2ncnc(Nc3cccc(Br)c3)c2cc1OCC . Is its ΔTm strictly less than 0.6 °C?
## Result false (0)

## Task Consider the molecule NCCNc1ncc(C(N)=O)c(Nc2cccc(C(F)(F)F)c2)n1 . Is its ΔTm strictly less than 0.6 °C?
## Result false (0)

## Task Consider the molecule CC(=O)O/N=C1/C(=C2/C(=O)Nc3cc(Br)ccc32)Nc2ccccc21 . Is its ΔTm strictly less than 0.6 °C?
## Result false (0)

## Task Consider the molecule O=C1c2ccccc2-c2n[nH]c3cccc1c23 . Is its ΔTm strictly less than 0.6 °C?
## Result false (0)
